Reported IC50 values are given for each entry in this list.
study-system: TACE (Homo sapiens)
Sequence (P78536 223-474): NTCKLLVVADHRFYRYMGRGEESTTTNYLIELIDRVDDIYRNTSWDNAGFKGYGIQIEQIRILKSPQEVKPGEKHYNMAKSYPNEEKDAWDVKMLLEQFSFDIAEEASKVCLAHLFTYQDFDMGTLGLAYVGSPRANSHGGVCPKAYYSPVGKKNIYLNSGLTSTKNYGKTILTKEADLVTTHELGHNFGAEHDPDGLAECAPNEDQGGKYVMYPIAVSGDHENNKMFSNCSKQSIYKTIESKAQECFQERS
protocol-summary: Recombinant TNFα converting enzyme (TACE) activity, fluorescent quenched substrate
quantity-name: IC50 (nM)

compound | study-system | observed-value
C[C@@H]1O[C@@H](C)CN(S(=O)(=O)c2ccc(OCc3ccncc3)cc2)[C@H]1C(=O)NO | TACE (Homo sapiens) | 12
C[C@@H]1NCCN(S(=O)(=O)c2ccc(OCc3ccccc3)cc2)[C@H]1C(=O)NO | TACE (Homo sapiens) | 25
C[C@@H]1O[C@@H](CO)CN(S(=O)(=O)c2ccc(OCc3ccc(F)cc3)cc2)[C@H]1C(=O)NO | TACE (Homo sapiens) | 4.5
Cc1ccc(C)c(COc2ccc(S(=O)(=O)N3C[C@H](C)O[C@@H](C)[C@@H]3C(=O)NO)cc2)c1 | TACE (Homo sapiens) | 10
Cc1ccccc1COc1ccc(S(=O)(=O)N2CCN[C@@H](C)[C@@H]2C(=O)NO)cc1 | TACE (Homo sapiens) | 19
CC(=O)N1CCN(S(=O)(=O)c2ccc(OCc3ccccc3C)cc2)[C@@H](C(=O)NO)[C@@H]1C | TACE (Homo sapiens) | 6.2
CC1(C)[C@H](C(=O)NO)N(S(=O)(=O)c2ccc(OCc3ccc(F)cc3)cc2)CC[S+]1[O-] (some centres unmarked) | TACE (Homo sapiens) | 7.4
CC1(C)[C@H](C(=O)NO)N(S(=O)(=O)c2ccc(OCc3ccc(F)cc3)cc2)CCS1(=O)=O | TACE (Homo sapiens) | 7.2

Origin of values: patent US20030181441A1
